Dear all, I have gathered published pIC50 values for PIK3CA (human) (UniProt P42336); the list follows.
pIC50: −log10 of the molar value.

These recorded examples may help you get a feel for the data.
Nc1nc2cc(-c3ccc4ncc(N5CC[C@@H](N6CCOCC6)C5)nc4c3)ccc2o1 = > 7.00
O=C(c1cnc2ccc(-c3cnc(Cl)c(NS(=O)(=O)c4ccccc4)c3)cn12)N1CCOCC1 = > 7.00

Data request, read-out pIC50, for "CCC(=O)N1CCC(n2nnc3cnc4ccc(-c5cnc(N)c(C(F)(F)F)c5)nc4c32)CC1" > 7.00

And for "CNC(=O)Nc1ccc2c(c1)C(=O)/C(=C/c1cn(C)c3nccc(N4CCC(C(=O)N(C)C)CC4)c13)O2" ? 6.38

---

pIC50: −log10 of the molar value.
Dear all, I have gathered published pIC50 values for PIK3CA (human) (UniProt P42336); the list follows.
test-readout: pIC50

FC[C@H]1CCCN1[C@H]1CC[C@H](CNc2cc(-n3c(C(F)F)nc4ccccc43)nc(N3CCOCC3)n2)CC1 = 5.70
Cn1cc(-c2nc(Oc3ccc4[nH]ccc4c3)c3cnn(C)c3n2)cn1 = 5.54

[a] Cn1cc(/C=C2\Oc3ccc(NC(=O)Nc4cccnc4)cc3C2=O)c2c(N3CCOC(C)(C)C3)ccnc21
[b] O=C1CC[C@@H](C(=O)N2CC(Nc3cc(-n4c(C(F)F)nc5ccccc54)nc(N4CCOCC4)n3)C2)N1
[c] C[C@H](Nc1ccc2c(c1F)OCCn1cc(N3C(=O)OC[C@H]3C(F)F)nc1-2)C(N)=O
[d] N#C[BH2-][n+]1cccc(CNc2cccc(Oc3cc(=O)[nH]c4ccccc34)c2)c1
[e] C[C@@H]1COCCN1c1nc(N2CCOCC2)c2nc(-c3cccc4[nH]ccc34)[nH]c2n1
Order field: pIC50 | Direction: descending (largest first) I would appreciate it if you listed the labels in the requested order. c, e, a, b, d

---

Dear all, I have gathered published IC50 values for PIK3CA (human) (UniProt P42336); the list follows.

These recorded examples may help you get a feel for the data.
FCC(CF)N1CCC(CNc2nc(N3CCOCC3)cc(-n3c(C(F)F)nc4ccccc43)n2)CC1 = 4200 nM
Nc1ncc(-c2nc(N3CCOCC3)c3ncc(-c4cccc(NS(=O)(=O)c5ccc(F)cc5)c4)cc3n2)cn1 = < 50 nM

Data request, read-out IC50, for "Nc1ncc(-c2ccc3ncc4c(=O)[nH]c(=O)n(-c5cccc(C(F)(F)F)c5)c4c3n2)cn1" 15.2 nM

And for "CC(C)Cn1c(N2CCN(C(=O)CO)CC2)nc2c(N3CCOC[C@@H]3C)nc(-c3cnc(N)nc3)nc21" ? 10 to 20 nM

And for "Nc1nc2cc(-c3ccc4ncc(N5CCOCC5)nc4c3)ccc2s1" ? < 100 nM

And for Cn1cc(/C=C2\Oc3ccc(NC(=O)Nc4cccnc4)cc3C2=O)c2c(N3CC4COC(C3)O4)ccnc21 (centres unmarked) ? 288 nM

And for "CC(=O)Nc1n[nH]c2cc(-c3ccc4oc(N)nc4c3)ccc12" ? < 10000 nM

And for "C[C@H](NC(=O)c1nc(-c2cccc(NS(C)(=O)=O)c2)cnc1N)c1cc2cccc(N3CCOCC3)c2c(=O)n1-c1ccccc1" ? > 10000 nM

---

Dear all, I have gathered published IC50 values for PIK3CA (human) (UniProt P42336); the list follows.
test-readout: IC50 (nM)

CC(C)(C)c1ncc2c(n1)-c1sc(NC(=O)N3CCC[C@@]3(CO)C(N)=O)nc1CC2 = 8.5
CNC(=O)C(C)Cn1cnc2ccc(-c3cnc(OC)c(NS(=O)(=O)c4ccc(F)c(C#N)c4)c3)cc2c1=O (single isomer, unassigned) = 3.56
COC1CCN(C(=O)c2ccc(-c3ccnc4c3c(/C=C3\Oc5ccc(NC(=O)Nc6cccnc6)cc5C3=O)cn4C)cc2)C1 (stereo not shown) = 2060
COc1ncc(-c2cc(OC3CCCCC3)c3ncnc(C)c3c2)cc1NS(=O)(=O)c1ccc(F)cc1F = 1.7
CCn1ccc2c(N3CCOCC3)nc(-c3ccc(NC(=O)Nc4ccc(C(=O)N5CCSCC5)cc4)cc3)nc21 = 3.5

[P] CCNc1nc(C)c2cc(-c3cnc(OC)c(NS(=O)(=O)c4ccc(F)cc4F)c3)cc(OC3CCOCC3)c2n1
[Q] CN(C)CCNC(=O)c1ccc2c(c1)C(=O)/C(=C/c1cn(C)c3nccc(-c4ccccc4)c13)O2
// which entry reports the smaller IC50, P or Q ? Provide the label of your selected option as the answer. P
(P: 1.3 nM, Q: 34 nM)

---

pIC50: −log10 of the molar value.
Dear all, I have gathered published pIC50 values for PIK3CA (human); the list follows.
test-readout: pIC50

These recorded examples may help you get a feel for the data.
COc1ncc(-c2cc(OCC3CCOC3)c3nc(N)nc(C)c3c2)cc1NS(=O)(=O)c1ccc(F)cc1F (centres unmarked) = 9.00
Cn1cc(/C=C2\Oc3cccc(O)c3C2=O)c2c(-c3ccc(S(=O)(=O)NCc4ccccc4)cc3)ccnc21 = 8.00
CN1CCN(c2ccnc3ccc(-c4cncc(S(=O)(=O)Nc5ccc(F)cc5F)c4)nc23)CC1 = 7.30
C=CCN(C(C)COC)[C@H]1CC[C@H](CNc2nc(N3CCOC[C@@H]3C)cc(-n3c(C(F)F)nc4ccccc43)n2)CC1 (some centres unmarked) = 6.24
CCN(CCOC)[C@H]1CC[C@H](CNc2nc(N3CCOCC3)cc(-n3c(C(F)F)nc4ccccc43)n2)CC1 = 5.85
Cn1cc(/C=C2\Oc3cccc(O)c3C2=O)c2c(-c3ccc(S(=O)(=O)N4CCCCC4)cc3)ccnc21 = 6.91
Cc1cnccc1CN(C)C(=O)C1CCN(c2ccnc3c2c(/C=C2\Oc4ccc(NC(=O)Nc5cccnc5)cc4C2=O)cn3C)CC1 = 5.55
CCN(C(C)CF)[C@H]1CC[C@H](CNc2nc(N3CCOCC3)cc(-n3c(C(F)F)nc4ccccc43)n2)CC1 (some centres unmarked) = 6.00
CN1CCCC1CCNC(=O)c1nc2c(N3CCOCC3)nc(-c3cnn(C)c3)nc2[nH]1 (centres unmarked) = 6.01
CC(N[C@H]1CC[C@H](Nc2nc(N3CCOCC3)nc(-n3c(C(F)F)nc4ccccc43)n2)CC1)c1ccccc1O (some centres unmarked) = 5.66

[1] CCn1cc(/C=C2\Oc3cccc(O)c3C2=O)c2c(-c3ccc(C(=O)N4CCN(CCO)CC4)cc3)ccnc21
[2] FC[C@@H]1CCCN1[C@H]1CC[C@H](CNc2nc(N3CCOCC3)cc(-n3c(C(F)F)nc4ccccc43)n2)CC1
Response body: label of entry with the larger pIC50; valid values 1 , 2 . Provide the label of your selected option as the answer. 1

---

Dear all, I have gathered published IC50 values for PIK3CA (human); the list follows.

These recorded examples may help you get a feel for the data.
CCCCC/C=C/C(=O)Nc1cccc(-c2csc3c(=O)cc(N4CCOCC4)oc23)c1 = 1000 to 10000 nM
CCN1CCN(C(=O)c2cnc3ccc(-c4ccc5oc(N)nc5c4)cn23)CC1 = < 1000 nM
C[C@H](Nc1nc(N)nc2cccnc12)c1cc2cccc(-c3cnn(C)c3)c2c(=O)n1-c1cccc(F)c1 = 1000 to 10000 nM

Data request, read-out IC50, for "Nc1nc2ncc(-c3ccc4c(c3)CN(C(=O)N3CCC(C(F)F)CC3)CCO4)cc2[nH]1" 75 to 200 nM

---

Dear all, I have gathered published pIC50 values for PIK3CA (human); the list follows.
pIC50: −log10 of the molar value.

Cc1nc2ccc(-c3ccc4c(c3)CN(C(=O)N3CCC(Oc5ccc(Cl)cc5)CC3)CCO4)cc2[nH]1 = 5.52 to 6.00

Data request, read-out pIC50, for "Cc1cc(-c2cccc3cc([C@H](C)Nc4ncnc5scnc45)n(-c4ccccc4)c(=O)c23)cnc1F" 5.00 to 6.00

And for "CC(=O)Nc1nc2ccc(-c3nn(Cc4cc5cccc(C)c5c(=O)n4-c4ccccc4)c4ncnc(N)c34)cc2o1" ? > 5.00

And for "Cn1cc(C=C2Oc3cc(O)cc(O)c3C2=O)c2cccnc21" ? 7.19

---

Dear all, I have gathered published IC50 values for UniProt:P42336; the list follows.
test-readout: IC50 (nM)

These recorded examples may help you get a feel for the data.
C[C@H]1COCCN1c1nc(N2CC3CCC(C2)O3)nc2[nH]c(-c3cccc4[nH]ccc34)nc12 = 420
Cn1cc(/C=C2\Oc3cc(O)cc(O)c3C2=O)c2c(-c3ccc(OCCn4ccnc4)cc3)ccnc21 = 24
CCOC(=O)Nc1cc(C(F)(F)F)c(-c2nc(N3CCOCC3)c3cc(CN4CCN(S(C)(=O)=O)CC4)cn3n2)cn1 = 7.15
C[C@H](Nc1ccc2c(c1)OCCn1cc(N3C(=O)CC[C@H]3C(F)F)nc1-2)C(N)=O = 2.1

[a] Cn1cc(/C=C2\Oc3ccc(NC(=O)Nc4cccnc4)cc3C2=O)c2c(N3CC4CCC(C3)O4)ccnc21
[b] N#CCc1ccc(Nc2ncnc3ccc(-c4cncc5ccccc45)cc23)cc1
[c] O=c1cc(Oc2ccccc2)c2cc(-c3ccoc3)ccc2[nH]1
Order field: IC50 | Direction: descending (largest first) I would appreciate it if you listed the labels in the requested order. c, a, b
(c: 6960 nM, a: 2080 nM, b: 150 nM)

[P] Cn1cc(/C=C2\Oc3cccc(O)c3C2=O)c2c(N3CCC(C(=O)N4CCOCC4)CC3)ccnc21
[Q] N#CCc1ccc(Nc2ncnc3ccc(-c4ccc5c(c4)OCO5)cc23)cc1
// which entry reports the smaller IC50, P or Q ? Provide the label of your selected option as the answer. P
